molecular target: human GLP-1R receptor (Homo sapiens, UniProt P43220); construct: expressed in transfected cells; test: GLP-1R low expression cell assay (cAMP TR-FRET, CHO-K1_hGLP-1Rlow_clone10 cells); type: cell-based; conditions: maximum activation relative to control GLP-1 peptide agonist
Sequence (P43220 24-463): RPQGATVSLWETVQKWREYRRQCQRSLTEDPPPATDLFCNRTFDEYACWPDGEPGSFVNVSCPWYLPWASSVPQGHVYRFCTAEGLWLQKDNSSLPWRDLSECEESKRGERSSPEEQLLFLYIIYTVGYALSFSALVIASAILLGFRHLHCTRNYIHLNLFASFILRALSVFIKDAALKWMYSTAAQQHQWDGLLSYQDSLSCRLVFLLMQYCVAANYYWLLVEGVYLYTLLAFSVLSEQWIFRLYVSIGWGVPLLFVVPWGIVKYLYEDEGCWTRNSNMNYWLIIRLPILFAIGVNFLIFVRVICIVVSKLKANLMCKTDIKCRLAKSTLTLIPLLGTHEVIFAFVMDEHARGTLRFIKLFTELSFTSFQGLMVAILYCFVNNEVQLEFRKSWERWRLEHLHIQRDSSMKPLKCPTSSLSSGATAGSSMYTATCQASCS
OBSERVABLE: Emax

• Cn1c(CN2CC=C(c3cccc(OCc4ccc(Cl)cc4F)n3)CC2)nc2c(OC(F)F)cc(C(=O)O)cc21 [Compound 155] = > 85%
• Cn1c(CN2CCC(c3cccc4c3OC[C@@H](c3ccc(C#N)cc3F)O4)CC2)nc2c(OC(F)F)cc(C(=O)O)cc21 [Compound 300] = > 85%
• N#Cc1ccc(COc2cccc(C3CCN(Cc4nc5cnc(C(=O)O)cc5n4C[C@@H]4CCO4)CC3)n2)c(F)c1 [Compound 378] = > 85%
• COc1c(OCc2ccc(C#N)cc2F)cccc1C1CCN(Cc2nc3c(OC(F)F)cc(C(=O)O)cc3n2C)CC1 [Compound 144] = < 25%
• COCCc1nc(C(=O)O)cc2c1nc(CN1CCC(c3cccc(OCc4ccc(C#N)cc4F)n3)CC1)n2C [Compound 107] = 50 to 85%
• Cn1c(CN2CCC(c3cccc(N4CCc5cc(C#N)cc(F)c5C4)n3)CC2)nc2c(OC(F)F)cc(C(=O)O)cc21 [Compound 151] = > 85%
• COc1cc(C(=O)O)c(F)c2c1nc(CN1CCC(c3cccc(OCc4ccc(Cl)cc4F)n3)CC1)n2C [Compound 302] = > 85%
• Cn1c(CN2CCC(c3cccc(COc4ccc(C#N)cc4F)n3)CC2)nc2c(OC(F)F)cc(C(=O)O)cc21 [Compound 130] = 25 to 50%
• Cn1c(CN2CCC(c3cccc(OCc4cc(F)c(C#N)cc4F)n3)CC2)nc2c(OC(F)F)cc(C(=O)O)cc21 [Compound 366] = > 85%
• COc1cc(C(=O)O)cc2c1nc(CN1CCC(c3cccc(OCc4ccc(Cl)cc4F)n3)CC1)n2C [Compound 249] = > 85%

Query: Requested field: Emax. Item: Cn1c(CN2CC=C(c3cccc(OCc4ccc(Cl)cc4F)c3)CC2)nc2c(OC(F)F)cc(C(=O)O)cc21 [Compound 159]
Result: > 85%

Query: Requested field: Emax. Item: COc1cc(C(=O)O)cc2c1nc([C@@H](C)N1CCC(c3cccc(OCc4ccc(C#N)cc4F)n3)CC1)n2C [Compound 103]
Result: 50 to 85%

Query: Requested field: Emax. Item: Cn1c(CN2CCN(c3cccc(OCc4ccc(Cl)cc4F)n3)CC2)nc2c(OC(F)F)cc(C(=O)O)cc21 [Compound 150]
Result: > 85%

Query: Requested field: Emax. Item: N#Cc1ccc(COc2cccc(C3CCN(Cc4nc5c(OC(F)F)cc(C(=O)O)cc5n4C[C@@H]4CCS4(=O)=O)CC3)n2)c(F)c1 [Compound 110]
Result: > 85%

Query: Requested field: Emax. Item: Cn1c(CN2CCC(c3cccc(OCc4ccc(C#N)cc4F)c3)CC2)nc2c(OC(F)F)cc(C(=O)O)cc21 [Compound 111]
Result: > 85%

Query: Requested field: Emax. Item: Cn1c(CN2CCC(c3cccc(OCc4ccc(Cl)cc4F)n3)CC2)nc2c(OC(F)F)cc(-c3nsc(=O)[nH]3)cc21 [Compound 370]
Result: > 85%

Query: Requested field: Emax. Item: CCOc1cc(C(=O)O)cc2c1nc(CN1CCC(c3cccc4c3O[C@H](c3ccc(C#N)cc3F)CO4)CC1)n2C [Compound 288]
Result: > 85%
